For each record, write down the corresponding solubility.
assay: Solubility of the compound at pH 6.8; type: physicochemical; settings: buffer
Kindly answer with a numeric value in µg/mL, unit omitted.

Input `CN[C@@H]1CCN(C(=O)c2cc3cc(Cl)cc(C)c3[nH]2)C1` . Output solubility: 59

For this molecule ( `Cc1cc(Cl)cc2cc(C(=O)N3CC(N4CCCC4)C3)[nH]c12` ), measured solubility is 10

Lab book: solubility of `CN1CCN(C(=O)c2cc3cc(Cl)cc(N)c3[nH]2)CC1` noted as 67

Reported solubility for `Cc1cc(Cl)cc2cc(C(=O)N3CCN(C)CC3)[nH]c12` was 57

// field: solubility; key: `Cc1cc(Cl)cc2cc(C(=O)N3CCNCC3)[nH]c12` ; value = 65

Please fill in: solubility reported for `CNC1CN(C(=O)c2cc3cc(Cl)cc(C)c3[nH]2)C1` = 51
